target: 5-hydroxytryptamine receptor 1A (Homo sapiens); assay: Displacement of [3H]8-OH-DPAT from 5-HT1A receptor expressed in CHO cells after 20 mins by liquid scintillation counting; type: cell-based; conditions: read-out: Ki
Sequence (P08908 whole entry): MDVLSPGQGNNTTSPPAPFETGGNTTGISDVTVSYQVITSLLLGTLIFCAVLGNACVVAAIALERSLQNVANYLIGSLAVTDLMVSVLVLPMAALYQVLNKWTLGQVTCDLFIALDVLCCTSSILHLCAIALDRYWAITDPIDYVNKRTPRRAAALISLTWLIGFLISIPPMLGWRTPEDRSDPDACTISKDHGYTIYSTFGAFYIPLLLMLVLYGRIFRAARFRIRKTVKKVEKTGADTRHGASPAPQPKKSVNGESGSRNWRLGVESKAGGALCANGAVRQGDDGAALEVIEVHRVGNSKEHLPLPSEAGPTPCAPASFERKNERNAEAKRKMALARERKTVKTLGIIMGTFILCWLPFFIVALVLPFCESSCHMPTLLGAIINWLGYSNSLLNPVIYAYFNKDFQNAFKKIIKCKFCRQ
reported_property: Ki
Give the figure together with its unit, number first.

Solved entries:
sample_smiles	reported_property	measured_result
O=C(CCCCN1CCCN(c2ccc(Cl)cc2)CC1)c1nc2ccccc2s1	Ki	0.495 µM
Clc1ccc(N2CCCN(CCCc3nc4ccccc4s3)CC2)cc1	Ki	0.216 µM

Now for a further compound.
// query Requested field: Ki. Item: Clc1ccc(N2CCCN(CCCCc3nc4ccccc4s3)CC2)cc1
// result 0.263 µM

###

molecular target: D(2) dopamine receptor (Homo sapiens); test: Displacement of [3H]-N-methylspiperone from dopamine D2 receptor expressed in […] MES-23.5 cells; format: cell-based; details: read-out: Ki
Sequence (P14416 whole entry): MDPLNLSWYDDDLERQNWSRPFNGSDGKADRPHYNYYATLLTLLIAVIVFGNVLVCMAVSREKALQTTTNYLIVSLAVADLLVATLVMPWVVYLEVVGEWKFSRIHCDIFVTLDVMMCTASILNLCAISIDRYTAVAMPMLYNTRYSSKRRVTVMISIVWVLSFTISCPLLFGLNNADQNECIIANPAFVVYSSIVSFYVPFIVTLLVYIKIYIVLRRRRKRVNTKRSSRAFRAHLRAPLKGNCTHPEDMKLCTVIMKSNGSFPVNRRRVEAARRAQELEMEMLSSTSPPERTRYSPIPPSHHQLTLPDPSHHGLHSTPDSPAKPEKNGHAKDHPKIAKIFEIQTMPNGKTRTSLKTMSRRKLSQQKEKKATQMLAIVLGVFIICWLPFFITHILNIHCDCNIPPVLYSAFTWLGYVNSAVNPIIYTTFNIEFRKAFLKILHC
List of pKi values.
Field pKi (float): negative decimal logarithm of the concentration in molar.

Solved entries:
sample_smiles	target_entity	pKi
Fc1ccc(CCCCN2CCCN(c3ccc(Cl)cc3)CC2)cc1	D(2) dopamine receptor (Homo sapiens)	6.86
O=C(CCCCN1CCCN(c2ccc(Cl)cc2)CC1)c1nc2ccccc2s1	D(2) dopamine receptor (Homo sapiens)	5.70

// query Requested field: pKi. Item: Clc1ccc(N2CCCN(CCCCc3nc4ccccc4s3)CC2)cc1
// result 6.59

###

target: Histamine H1 receptor (Homo sapiens, UniProt P35367); assay: Displacement of [3H]-Pyrilamine from human histamine H1 receptor by liquid scintillation counter; conditions: read-out: Ki
Sequence (P35367 whole entry): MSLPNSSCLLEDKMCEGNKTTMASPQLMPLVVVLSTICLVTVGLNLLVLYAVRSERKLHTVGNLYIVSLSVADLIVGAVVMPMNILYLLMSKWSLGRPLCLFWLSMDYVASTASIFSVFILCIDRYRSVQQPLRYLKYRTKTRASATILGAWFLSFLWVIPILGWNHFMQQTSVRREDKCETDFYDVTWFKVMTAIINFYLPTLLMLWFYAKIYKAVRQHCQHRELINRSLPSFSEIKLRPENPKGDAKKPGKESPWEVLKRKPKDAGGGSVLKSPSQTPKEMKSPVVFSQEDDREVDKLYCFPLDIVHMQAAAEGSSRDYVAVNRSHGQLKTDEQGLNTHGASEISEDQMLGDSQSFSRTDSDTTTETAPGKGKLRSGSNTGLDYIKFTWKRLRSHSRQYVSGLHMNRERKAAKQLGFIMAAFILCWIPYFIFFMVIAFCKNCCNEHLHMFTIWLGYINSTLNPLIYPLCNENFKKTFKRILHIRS
API: label(entry) gives 1 if the entry's Ki is strictly smaller than 500 nM; on equality or larger values it gives 0.

sample_smiles	class_name
Clc1ccc(N2CCCN(CCCCc3nc4ccccc4s3)CC2)cc1	1
O=C(CCCCN1CCCN(c2ccc(Cl)cc2)CC1)c1nc2ccccc2s1	1
Clc1ccc(N2CCCN(CCCc3nc4ccccc4s3)CC2)cc1	0
Fc1ccc(SCCCN2CCCN(c3ccc(Cl)cc3)CC2)cc1	0

Consider the additional molecule presented here.
// query In plain terms, does Fc1ccc(CCCCN2CCCN(c3ccc(Cl)cc3)CC2)cc1 come in under 500 nM for Ki?
// result 0

###

List of Ki values.
target: D(4) dopamine receptor (Rattus norvegicus, UniProt P30729)
Sequence (P30729 whole entry): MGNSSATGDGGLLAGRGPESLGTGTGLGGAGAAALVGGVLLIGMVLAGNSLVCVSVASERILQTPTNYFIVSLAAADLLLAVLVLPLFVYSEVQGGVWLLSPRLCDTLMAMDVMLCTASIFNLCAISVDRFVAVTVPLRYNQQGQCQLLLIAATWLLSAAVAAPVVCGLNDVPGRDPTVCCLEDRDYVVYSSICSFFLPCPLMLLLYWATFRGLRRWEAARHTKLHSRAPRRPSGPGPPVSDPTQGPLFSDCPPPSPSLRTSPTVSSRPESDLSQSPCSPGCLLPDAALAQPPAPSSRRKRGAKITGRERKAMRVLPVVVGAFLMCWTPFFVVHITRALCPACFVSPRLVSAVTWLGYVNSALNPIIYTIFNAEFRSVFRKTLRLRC
Number only, in µM; omit the unit.

Solved entries:
sample_smiles	target_entity	unit_abbrev	Ki
Clc1ccc(N2CCCN(CCCCc3nc4ccccc4s3)CC2)cc1	D(4) dopamine receptor (Rattus norvegicus, UniProt P30729)	µM	0.0286
O=C(CCCCN1CCCN(c2ccc(Cl)cc2)CC1)c1nc2ccccc2s1	D(4) dopamine receptor (Rattus norvegicus, UniProt P30729)	µM	1.21

Now for a further compound.
// query Requested field: Ki. Item: Clc1ccc(N2CCCN(CCCc3nc4ccccc4s3)CC2)cc1
// result 0.431

###

target: 5-hydroxytryptamine receptor 2A (Homo sapiens, UniProt P28223); experiment: Binding affinity at 5-HT2A receptor by radioligand displacement assay; settings: read-out: Ki
Sequence (P28223 whole entry): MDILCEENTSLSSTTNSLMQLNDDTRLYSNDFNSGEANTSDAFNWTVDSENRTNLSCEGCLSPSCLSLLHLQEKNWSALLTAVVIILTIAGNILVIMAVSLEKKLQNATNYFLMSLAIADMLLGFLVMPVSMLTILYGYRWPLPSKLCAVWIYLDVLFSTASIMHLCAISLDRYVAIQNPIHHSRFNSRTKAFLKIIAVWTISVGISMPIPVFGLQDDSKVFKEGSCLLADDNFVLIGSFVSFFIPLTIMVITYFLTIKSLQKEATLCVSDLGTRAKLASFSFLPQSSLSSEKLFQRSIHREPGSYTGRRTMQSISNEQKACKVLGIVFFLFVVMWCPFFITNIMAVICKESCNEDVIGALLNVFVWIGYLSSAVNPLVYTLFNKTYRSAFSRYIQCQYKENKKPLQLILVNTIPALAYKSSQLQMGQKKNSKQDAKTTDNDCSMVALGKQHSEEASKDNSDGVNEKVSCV
reported_property: pKi
Field pKi (float): negative decimal logarithm of the concentration in molar.

Solved entries:
sample_smiles	measured_result
Fc1ccc(SCCCN2CCCN(c3ccc(Cl)cc3)CC2)cc1	6.79
O=C(CCCN1CCCN(c2ccc(Cl)cc2)CC1)c1nc2ccccc2s1	5.98

// query Under 5-hydroxytryptamine receptor 2A (Homo sapiens, UniProt P28223): pKi value of O=C(CCCCN1CCCN(c2ccc(Cl)cc2)CC1)c1nc2ccccc2s1 ?
// result 6.00

// query Under 5-hydroxytryptamine receptor 2A (Homo sapiens, UniProt P28223): pKi value of Fc1ccc(CCCCN2CCCN(c3ccc(Cl)cc3)CC2)cc1 ?
// result 6.29

// query Under 5-hydroxytryptamine receptor 2A (Homo sapiens, UniProt P28223): pKi value of Clc1ccc(N2CCCN(CCCc3nc4ccccc4s3)CC2)cc1 ?
// result 6.16

// query Under 5-hydroxytryptamine receptor 2A (Homo sapiens, UniProt P28223): pKi value of Fc1ccc(OCCCN2CCCN(c3ccc(Cl)cc3)CC2)cc1 ?
// result 6.25

// query Under 5-hydroxytryptamine receptor 2A (Homo sapiens, UniProt P28223): pKi value of Clc1ccc(N2CCCN(CCCCc3nc4ccccc4s3)CC2)cc1 ?
// result 6.80
